Tested on: UO-31 renal
Assay: NCI-60 one-dose screen, 48 h (100 = growth as untreated, 0 = no growth, -100 = all killed)
Conditions: 10 µM
About 83,000 compounds went through this panel and 20% of them were active in at least one assay; those are over-represented in the sample as a whole. Where a SMILES comes first, the peptide text is derived from it. Bridges are numbered along the chain shown (N, C = ends). [ ]: non-standard residue; d: D form. The star is where a group is joined. ξ: configuration not given here. ξNMePhe(4-NMe2) = CNC(Cc1ccc(N(C)C)cc1)C(=O)O; Picolinoyl(3-OH) = O=C(c1ncccc1O)*; ξPip(4-oxo) = O=C1CCNC(C(=O)O)C1; Phg = N[CH](C(=O)O)c1ccccc1; Abu = CC[CH](N)C(=O)O
MEASUREMENT_KIND: growth (%)

COMPOUND: Cc1cc(/C=C/c2ccc3cc(N(C)C)ccc3[n+]2C)c(C)n1-c1ccccc1
MEASUREMENT_KIND: growth
VALUE_MEASURED: 1.75
--
COMPOUND: O=[N+]([O-])c1ccc(CO)cc1
MEASUREMENT_KIND: growth
VALUE_MEASURED: 93.5
--
COMPOUND: NC(=O)N/N=C\c1ccco1
MEASUREMENT_KIND: growth
VALUE_MEASURED: 94.7
--
COMPOUND: CN(C)c1ccc2nc3ccc(=N)cc-3sc2c1
MEASUREMENT_KIND: growth
VALUE_MEASURED: 57.3
--
COMPOUND: CC(=O)Cc1ccc(-c2ccccc2)cc1
MEASUREMENT_KIND: growth
VALUE_MEASURED: 84.8
--
COMPOUND: COc1cc2nn(-c3ccccc3N)nc2cc1OC
MEASUREMENT_KIND: growth
VALUE_MEASURED: 87.6
--
COMPOUND: COc1ccc2c(NCCCCCCCCNc3c4ccccc4nc4cc(OC)ccc34)c3ccccc3nc2c1
MEASUREMENT_KIND: growth
VALUE_MEASURED: -76.2
--
COMPOUND: OCc1ccc(-c2ccc(-c3ccc(CO)s3)o2)s1
MEASUREMENT_KIND: growth
VALUE_MEASURED: 41.4
--
COMPOUND: CCOC(=O)C(O)C(O)C(=O)OCC (stereo not drawn)
MEASUREMENT_KIND: growth
VALUE_MEASURED: 97.1
--
COMPOUND: CN(C)c1ccc(CNC(C(=O)c2ccccc2)c2ccccc2)cc1 (stereo not drawn)
MEASUREMENT_KIND: growth
VALUE_MEASURED: 102
--
COMPOUND: OCC(O)C(O)C(O)C(O)/C=N/O (stereo not drawn)
MEASUREMENT_KIND: growth
VALUE_MEASURED: 98.4
--
COMPOUND: O=S(=O)(O)c1ccc(Cl)c(Cl)c1
MEASUREMENT_KIND: growth
VALUE_MEASURED: 79.4
--
COMPOUND: Cc1cc(N2CCC(N3CCCC3)CC2)nc(/N=C(\N)Nc2ccc(Cl)c(Cl)c2)n1
MEASUREMENT_KIND: growth
VALUE_MEASURED: -97.4
--
COMPOUND: CC(=O)OC1CC2C(C)(C)OC3CC(=O)OCC32C2CCC3(C)C(=CCC3c3ccoc3)C12C (stereo not drawn)
MEASUREMENT_KIND: growth
VALUE_MEASURED: 86.9
--
COMPOUND: CC(=O)C1CCCCC1
MEASUREMENT_KIND: growth
VALUE_MEASURED: 92.8
--
COMPOUND: CC(=O)Nc1c(C)cc(C)cc1C
MEASUREMENT_KIND: growth
VALUE_MEASURED: 95.5
--
COMPOUND: O=C(O)C(Cc1ccccc1)C(=O)O
MEASUREMENT_KIND: growth
VALUE_MEASURED: 91.6
--
COMPOUND: COc1nc(N)nc2c1ncn2C1OC(CO)CC1O (stereo not drawn)
MEASUREMENT_KIND: growth
VALUE_MEASURED: 82.4
--
COMPOUND: COc1cccc(Sc2ccc([N+](=O)[O-])c3no[n+]([O-])c23)c1
MEASUREMENT_KIND: growth
VALUE_MEASURED: -21.5
--
COMPOUND: COc1ccc(OC)c(/C=C2\CCc3ccccc3C2=O)c1
MEASUREMENT_KIND: growth
VALUE_MEASURED: 61.1
--
COMPOUND: CN1C(=O)CN2CCc3ccccc3C2c2cc(Cl)ccc21 (stereo not drawn)
MEASUREMENT_KIND: growth
VALUE_MEASURED: 74.3
--
COMPOUND: NC(C(=O)O)C(O)c1ccco1 (stereo not drawn)
MEASUREMENT_KIND: growth
VALUE_MEASURED: 96.6
--
COMPOUND: CO[C@H]1C[C@@H]2CC[C@@H](C)[C@@](O)(O2)C(=O)C(=O)N2CCCC[C@H]2C(=O)O[C@H]([C@H](C)C[C@@H]2CC[C@@H](O)[C@H](OC)C2)CC(=O)[C@H](C)C=C(C)[C@@H](O)[C@@H](OC)C(=O)[C@H](C)C[C@H](C)/C=C/C=C/C=C1C
MEASUREMENT_KIND: growth
VALUE_MEASURED: 26.3
--
COMPOUND: O=[N+]([O-])c1ccccc1S(=O)c1ccccc1[N+](=O)[O-]
MEASUREMENT_KIND: growth
VALUE_MEASURED: 73.4
--
COMPOUND: CCOC(=O)C(CCC(C)C)C(=O)OCC
MEASUREMENT_KIND: growth
VALUE_MEASURED: 84.7
--
COMPOUND: Cc1ccc(N)cc1[N+](=O)[O-]
MEASUREMENT_KIND: growth
VALUE_MEASURED: 83.3
--
COMPOUND: Cc1ccc(Cl)cc1N1C(=O)CC(Sc2ccccc2N)C1=O (stereo not drawn)
MEASUREMENT_KIND: growth
VALUE_MEASURED: 105
--
COMPOUND: CCOC(=O)C1OC1c1ccccc1 (stereo not drawn)
MEASUREMENT_KIND: growth
VALUE_MEASURED: 89.2
--
COMPOUND: CCC1NC(=O)C(NC(=O)c2ncccc2O)C(C)OC(=O)C(c2ccccc2)NC(=O)C2CC(=O)CCN2C(=O)C(Cc2ccc(N(C)C)cc2)N(C)C(=O)C2CCCN2C1=O (stereo not drawn) (tested in a mixture with another compound) ({Picolinoyl(3-OH)}-T[Abu]P[ξNMePhe(4-NMe2)][ξPip(4-oxo)][Phg]; ester 1-C; configuration not given here)
MEASUREMENT_KIND: growth
VALUE_MEASURED: 90.8
--
COMPOUND: O=C(O)CSCSCC(=O)O
MEASUREMENT_KIND: growth
VALUE_MEASURED: 92.3
--
COMPOUND: CC(C)=C(NC(=O)c1ccccc1)C(=O)O
MEASUREMENT_KIND: growth
VALUE_MEASURED: 101
--
COMPOUND: O=C(CN1CCNCC1)N1CCOCC1
MEASUREMENT_KIND: growth
VALUE_MEASURED: 84.6
--
COMPOUND: O=C(/C=C\c1ccc(O)cc1)c1ccccc1
MEASUREMENT_KIND: growth
VALUE_MEASURED: 67.8
--
COMPOUND: NC(=S)CN1CCOCC1
MEASUREMENT_KIND: growth
VALUE_MEASURED: 88
--
COMPOUND: CCC(C)(O)c1ccc(C)cc1 (stereo not drawn)
MEASUREMENT_KIND: growth
VALUE_MEASURED: 91.4
--
COMPOUND: C/C(=C\c1cc(Cl)ccc1OCC(=O)O)[N+](=O)[O-]
MEASUREMENT_KIND: growth
VALUE_MEASURED: 90.5
--
COMPOUND: Clc1ccc(-c2nnc(-c3cccc4ccccc34)o2)cc1
MEASUREMENT_KIND: growth
VALUE_MEASURED: 41.4
--
COMPOUND: CC[N+](C)(CC)CCO
MEASUREMENT_KIND: growth
VALUE_MEASURED: 92
--
COMPOUND: CC1CC(O)C2C3(C)CCCC2(COC3=O)C12CCC1(CCOC1=O)O2 (stereo not drawn)
MEASUREMENT_KIND: growth
VALUE_MEASURED: 93.3
--
COMPOUND: O=C(NN=C1CCCCC1)C(=O)NN=C1CCCCC1
MEASUREMENT_KIND: growth
VALUE_MEASURED: 95.6
--
COMPOUND: COc1ccc(C(O)c2ccccc2)cc1 (stereo not drawn)
MEASUREMENT_KIND: growth
VALUE_MEASURED: 81.9
--
COMPOUND: O=C(CCNNC(=O)c1ccncc1)NCc1ccccc1
MEASUREMENT_KIND: growth
VALUE_MEASURED: 91.3
--
COMPOUND: Cc1ccc(O)c(C(=O)c2ccccc2)c1
MEASUREMENT_KIND: growth
VALUE_MEASURED: 97.2
--
COMPOUND: NC(=S)N/N=C/c1ccc(N)cc1
MEASUREMENT_KIND: growth
VALUE_MEASURED: 91.6
--
COMPOUND: Cc1ccncc1C(N)=O
MEASUREMENT_KIND: growth
VALUE_MEASURED: 97
--
COMPOUND: CC(=O)Nc1cccc(NC(C)=O)n1
MEASUREMENT_KIND: growth
VALUE_MEASURED: 99.4
--
COMPOUND: O=C1OC(=O)C2C1C1(Cl)C(Cl)=C(Cl)C2(Cl)C2C(=O)OC(=O)C21 (stereo not drawn)
MEASUREMENT_KIND: growth
VALUE_MEASURED: 84.4
--
COMPOUND: Cc1nc2ccccc2c(C(=O)O)c1O
MEASUREMENT_KIND: growth
VALUE_MEASURED: 91.2
